- assay_text: Biodistribution of ^111In-labeled peptides in B16-F1 melanoma-bearing mice
- Format: in vivo, mouse (B6D2F1)
- setup_conditions: female, B6D2F1, mouse, kidney, iv, total radioactivity; ^111In-labeled peptide, 185 kBq i.v., 48 h; mean ± SEM of three experiments, n = 5 animals each; read-out: Kidney uptake
Non-standard residues stand in square brackets, D forms with d. Residues, ends and D or L forms follow the SMILES beside them. *: point of attachment. DOTA = O=C(O)CN1CCN(CC(=O)O)CCN(CC(=O)*)CCN(CC(=O)O)CC1; pY = N[C@@H](Cc1ccc(OP(=O)(O)O)cc1)C(=O)O; Nle = CCCC[C@H](N)C(=O)O
observable: tissue uptake at 48 h (%ID/g)
Reply with just the number (in %ID/g).

tissue uptake at 48 h reported for this compound CCCC[C@H](NC(C)=O)C(=O)N[C@@H](CC(=O)O)C(=O)N[C@@H](Cc1c[nH]cn1)C(=O)N[C@H](Cc1ccccc1)C(=O)N[C@@H](CCCNC(=N)N)C(=O)N[C@@H](Cc1c[nH]c2ccccc12)C(=O)NCC(=O)N[C@@H](CCCCNC(=O)CN1CCN(CC(=O)O)CCN(CC(=O)O)CCN(CC(=O)O)CC1)C(N)=O [DOTA-NAP-amide, reference compound] : 1.55

tissue uptake at 48 h reported for this compound CCCC[C@H](NC(=O)[C@H](Cc1ccc(OP(=O)(O)O)cc1)NC(=O)CNC(=O)CN1CCN(CC(=O)O)CCN(CC(=O)O)CCN(CC(=O)O)CC1)C(=O)N[C@@H](CC(=O)O)C(=O)N[C@@H](Cc1c[nH]cn1)C(=O)N[C@H](Cc1ccccc1)C(=O)N[C@@H](CCCNC(=N)N)C(=O)N[C@@H](Cc1c[nH]c2ccccc12)C(N)=O [DOTA-Phospho-MSH2-9] ({DOTA}-G[pY][Nle]DH[dF]RW-NH2) : 1.04

tissue uptake at 48 h reported for this compound CCCC[C@H](NC(C)=O)C(=O)N[C@@H](CC(=O)O)C(=O)N[C@@H](Cc1c[nH]cn1)C(=O)N[C@H](Cc1ccccc1)C(=O)N[C@@H](CCCNC(=N)N)C(=O)N[C@@H](Cc1c[nH]c2ccccc12)C(=O)NCC(=O)N[C@@H](CCCCNC(=O)CN1CCN(CC(=O)O)CCN(CC(=O)O)CCN(CC(=O)O)CC1)C(=O)N[C@H](CC(=O)O)C(=O)N[C@H](CC(=O)O)C(=O)O [DOTA-NAP-D-Asp-D-Asp] (Ac-[Nle]DH[dF]RWGK(DOTA)[dD][dD]-OH) : 2.02

----------
Parameter: tissue uptake at 24 h. Scope: all listed entries.
- assay_text: Biodistribution of ^111In-labeled peptides in B16-F1 melanoma-bearing mice
- Assay type: in vivo, mouse (B6D2F1)
- setup_conditions: female, B6D2F1, mouse, heart, iv, total radioactivity; ^111In-labeled peptide, 185 kBq i.v., 24 h; mean ± SEM of three experiments, n = 5 animals each; read-out: Heart uptake
- Method: About 5 × 10^5 B16-F1 cells were implanted subcutaneously to female B6D2F1 mice (C57BL/6 × DBA/2F1 hybrids; breeding pairs obtained from IFFA-CREDO, France). […] The radioactivity emitted by each organ was measured in a γ-counter to determine the tissue uptake as percentage of the injected dose (ID) per gram of tissue. The total of injected radioactivity per animal was determined by extrapolation from the counts of a standard collected from the injection solution for each animal. […]
Non-standard residues stand in square brackets, D forms with d. Residues, ends and D or L forms follow the SMILES beside them. *: point of attachment. DOTA = O=C(O)CN1CCN(CC(=O)O)CCN(CC(=O)*)CCN(CC(=O)O)CC1; pY = N[C@@H](Cc1ccc(OP(=O)(O)O)cc1)C(=O)O; Nle = CCCC[C@H](N)C(=O)O
Reply with just the number (in %ID/g).

Before answering, review these 2 worked examples.
molecule: CCCC[C@H](NC(C)=O)C(=O)N[C@@H](CC(=O)O)C(=O)N[C@@H](Cc1c[nH]cn1)C(=O)N[C@H](Cc1ccccc1)C(=O)N[C@@H](CCCNC(=N)N)C(=O)N[C@@H](Cc1c[nH]c2ccccc12)C(=O)NCC(=O)N[C@@H](CCCCNC(=O)CN1CCN(CC(=O)O)CCN(CC(=O)O)CCN(CC(=O)O)CC1)C(=O)N[C@H](CC(=O)O)C(=O)N[C@H](CC(=O)O)C(=O)O [DOTA-NAP-D-Asp-D-Asp] (Ac-[Nle]DH[dF]RWGK(DOTA)[dD][dD]-OH)
unit_name: %ID/g
tissue uptake at 24 h: 0.03

molecule: CCCC[C@H](NC(C)=O)C(=O)N[C@@H](CC(=O)O)C(=O)N[C@@H](Cc1c[nH]cn1)C(=O)N[C@H](Cc1ccccc1)C(=O)N[C@@H](CCCNC(=N)N)C(=O)N[C@@H](Cc1c[nH]c2ccccc12)C(=O)NCC(=O)N[C@@H](CCCCNC(=O)CN1CCN(CC(=O)O)CCN(CC(=O)O)CCN(CC(=O)O)CC1)C(N)=O [DOTA-NAP-amide, reference compound]
unit_name: %ID/g
tissue uptake at 24 h: 0.03

tissue uptake at 24 h reported for this molecule CCCC[C@H](NC(=O)[C@H](Cc1ccc(OP(=O)(O)O)cc1)NC(=O)CNC(=O)CN1CCN(CC(=O)O)CCN(CC(=O)O)CCN(CC(=O)O)CC1)C(=O)N[C@@H](CC(=O)O)C(=O)N[C@@H](Cc1c[nH]cn1)C(=O)N[C@H](Cc1ccccc1)C(=O)N[C@@H](CCCNC(=N)N)C(=O)N[C@@H](Cc1c[nH]c2ccccc12)C(N)=O [DOTA-Phospho-MSH2-9] ({DOTA}-G[pY][Nle]DH[dF]RW-NH2) : 0.03

----------
- assay_text: Biodistribution of ^111In-labeled peptides in B16-F1 melanoma-bearing mice
- Assay type: in vivo, mouse (B6D2F1)
- setup_conditions: female, B6D2F1, mouse, spleen, iv, total radioactivity; ^111In-labeled peptide, 185 kBq i.v., 48 h; mean ± SEM of three experiments, n = 5 animals each; read-out: Spleen uptake
Non-standard residues stand in square brackets, D forms with d. Residues, ends and D or L forms follow the SMILES beside them. *: point of attachment. DOTA = O=C(O)CN1CCN(CC(=O)O)CCN(CC(=O)*)CCN(CC(=O)O)CC1; pY = N[C@@H](Cc1ccc(OP(=O)(O)O)cc1)C(=O)O; Nle = CCCC[C@H](N)C(=O)O
Parameter: tissue uptake at 48 h. Scope: all listed entries.
Reply with just the number (in %ID/g).

Before answering, review these 2 worked examples.
compound: CCCC[C@H](NC(=O)[C@H](Cc1ccc(OP(=O)(O)O)cc1)NC(=O)CNC(=O)CN1CCN(CC(=O)O)CCN(CC(=O)O)CCN(CC(=O)O)CC1)C(=O)N[C@@H](CC(=O)O)C(=O)N[C@@H](Cc1c[nH]cn1)C(=O)N[C@H](Cc1ccccc1)C(=O)N[C@@H](CCCNC(=N)N)C(=O)N[C@@H](Cc1c[nH]c2ccccc12)C(N)=O [DOTA-Phospho-MSH2-9] ({DOTA}-G[pY][Nle]DH[dF]RW-NH2)
tissue uptake at 48 h, %ID/g: 0.09
//
compound: CCCC[C@H](NC(C)=O)C(=O)N[C@@H](CC(=O)O)C(=O)N[C@@H](Cc1c[nH]cn1)C(=O)N[C@H](Cc1ccccc1)C(=O)N[C@@H](CCCNC(=N)N)C(=O)N[C@@H](Cc1c[nH]c2ccccc12)C(=O)NCC(=O)N[C@@H](CCCCNC(=O)CN1CCN(CC(=O)O)CCN(CC(=O)O)CCN(CC(=O)O)CC1)C(N)=O [DOTA-NAP-amide, reference compound]
tissue uptake at 48 h, %ID/g: 0.1

// moving on: another record for tissue uptake at 48 h
tissue uptake at 48 h reported for this compound CCCC[C@H](NC(C)=O)C(=O)N[C@@H](CC(=O)O)C(=O)N[C@@H](Cc1c[nH]cn1)C(=O)N[C@H](Cc1ccccc1)C(=O)N[C@@H](CCCNC(=N)N)C(=O)N[C@@H](Cc1c[nH]c2ccccc12)C(=O)NCC(=O)N[C@@H](CCCCNC(=O)CN1CCN(CC(=O)O)CCN(CC(=O)O)CCN(CC(=O)O)CC1)C(=O)N[C@H](CC(=O)O)C(=O)N[C@H](CC(=O)O)C(=O)O [DOTA-NAP-D-Asp-D-Asp] (Ac-[Nle]DH[dF]RWGK(DOTA)[dD][dD]-OH) : 0.07

----------
Parameter: tissue uptake at 48 h. Scope: all listed entries.
- assay_text: Biodistribution of ^111In-labeled peptides in B16-F1 melanoma-bearing mice
- Type: in vivo, mouse (B6D2F1)
- setup_conditions: female, B6D2F1, mouse, lung, iv, total radioactivity; ^111In-labeled peptide, 185 kBq i.v., 48 h; mean ± SEM of three experiments, n = 5 animals each; read-out: Lung uptake
Non-standard residues stand in square brackets, D forms with d. Residues, ends and D or L forms follow the SMILES beside them. *: point of attachment. DOTA = O=C(O)CN1CCN(CC(=O)O)CCN(CC(=O)*)CCN(CC(=O)O)CC1; pY = N[C@@H](Cc1ccc(OP(=O)(O)O)cc1)C(=O)O; Nle = CCCC[C@H](N)C(=O)O

compound: CCCC[C@H](NC(C)=O)C(=O)N[C@@H](CC(=O)O)C(=O)N[C@@H](Cc1c[nH]cn1)C(=O)N[C@H](Cc1ccccc1)C(=O)N[C@@H](CCCNC(=N)N)C(=O)N[C@@H](Cc1c[nH]c2ccccc12)C(=O)NCC(=O)N[C@@H](CCCCNC(=O)CN1CCN(CC(=O)O)CCN(CC(=O)O)CCN(CC(=O)O)CC1)C(=O)N[C@H](CC(=O)O)C(=O)N[C@H](CC(=O)O)C(=O)O [DOTA-NAP-D-Asp-D-Asp] (Ac-[Nle]DH[dF]RWGK(DOTA)[dD][dD]-OH)
observable: tissue uptake at 48 h
assay_value: 0.03 %ID/g
//
compound: CCCC[C@H](NC(=O)[C@H](Cc1ccc(OP(=O)(O)O)cc1)NC(=O)CNC(=O)CN1CCN(CC(=O)O)CCN(CC(=O)O)CCN(CC(=O)O)CC1)C(=O)N[C@@H](CC(=O)O)C(=O)N[C@@H](Cc1c[nH]cn1)C(=O)N[C@H](Cc1ccccc1)C(=O)N[C@@H](CCCNC(=N)N)C(=O)N[C@@H](Cc1c[nH]c2ccccc12)C(N)=O [DOTA-Phospho-MSH2-9] ({DOTA}-G[pY][Nle]DH[dF]RW-NH2)
observable: tissue uptake at 48 h
assay_value: 0.03 %ID/g

// moving on: another record for tissue uptake at 48 h
tissue uptake at 48 h reported for this compound CCCC[C@H](NC(C)=O)C(=O)N[C@@H](CC(=O)O)C(=O)N[C@@H](Cc1c[nH]cn1)C(=O)N[C@H](Cc1ccccc1)C(=O)N[C@@H](CCCNC(=N)N)C(=O)N[C@@H](Cc1c[nH]c2ccccc12)C(=O)NCC(=O)N[C@@H](CCCCNC(=O)CN1CCN(CC(=O)O)CCN(CC(=O)O)CCN(CC(=O)O)CC1)C(N)=O [DOTA-NAP-amide, reference compound] : 0.03 %ID/g
